- System: OVCAR-8 ovarian
- Experimental Details: NCI tumour cell line growth inhibition, 48 h
Metric Name: TGI (µM)
Number only, in µM; omit the unit.

TGI for C/C=C(/I)CBr is 45.4

TGI for CC(=O)Oc1ccc(C23c4ccccc4C2(OC(C)=O)c2cc(OC(C)=O)ccc23)cc1 (stereo not given) is 49.5

---

- System: CAKI-1 renal
- Experimental Details: NCI tumour cell line growth inhibition, 48 h
Metric Name: TGI

TGI for CC1=Nc2c(ccc3c2C(=O)c2ccccc2C3=O)NC(c2cccc3c2CCC3)C1 (stereo not drawn) is > 96.8 µM

TGI for COC(CN(C(C)=O)C1CCC2(SCCS2)c2[nH]c3ccccc3c21)OC (stereo not drawn) is > 100 µM

TGI for CC1=C[C@H]2c3c([nH]c4ccccc34)C(c3c[nH]c4ccccc34)[C@H]2CC1 (stereo partly drawn) is 26.3 µM

TGI for COc1ccc(C(=O)O[C@H]2[C@@H]3C=CO[C@@H](OC4OC(CO)C(O)C(O)C4O)[C@@H]3[C@@]3(CO)O[C@@H]23)cc1O (stereo partly drawn) is > 100 µM

TGI for O=C(O)Cc1ccc(Nc2nc3cc(C(F)(F)F)ccc3nc2C(=O)O)cc1 is > 100 µM

TGI for CC(=O)Oc1ccc(C23c4ccccc4C2(OC(C)=O)c2cc(OC(C)=O)ccc23)cc1 (stereo not drawn) is 17.2 µM

TGI for CC(=O)OCC1OC(n2cc(F)c(=O)[nH]c2=O)C(NC(=O)OCc2ccccc2)C(OC(C)=O)C1OC(C)=O (stereo not drawn) is > 100 µM

TGI for O=C(Nc1cc(C(F)(F)F)ccc1Cl)c1ccc(NC2=C(Cl)C(=O)N(Cc3ccccc3)C2=O)cc1 is > 100 µM

TGI for O=C(NCCN1CCOCC1)c1cn2c(ccc3sc4ccccc4c(=O)c32)n1 is > 100 µM

TGI for O=C1/C(=C/c2cccc(Br)c2)COc2ccc(O)cc21 is 5.12 µM

TGI for CCOC(=O)C1=C(O)C2C3CC4C2C(O)=C(C(=O)OCC)C2C1C3C42 (stereo not drawn) is > 100 µM

TGI for C=CCC1CC(n2cc(C)c(=O)[nH]c2=O)OC1CO[Si](C)(C)C(C)(C)C (stereo not drawn) is 31.8 µM

TGI for S=c1snc2n1CCN2 is > 100 µM

TGI for CN1C/C(=C\c2cccs2)C(O)/C(=C/c2cccs2)C1 (stereo not drawn) is > 100 µM

TGI for Cc1ncc(C(=O)Nc2ccc(CN3CCN(C)CC3)c(C(F)(F)F)c2)cc1C#Cc1cnc2cccnn12 is 2.82 µM

TGI for CCCCCCCCOC(=O)CC[C@@H](C)[C@H]1CC[C@H]2[C@@H]3[C@H](OC(=O)CCN)C[C@@H]4C[C@H](OC(=O)CCN)CC[C@]4(C)[C@H]3C[C@H](OC(=O)CCN)[C@]12C is 34.6 µM

TGI for CC1=C(C(=O)CC(=O)C(=O)Nc2cc(C)ccc2C)Sc2ccccc2N1 is > 100 µM

TGI for COC12CCC(=O)C=C1c1ccccc1N2C(C)=O (stereo not drawn) is > 100 µM

TGI for COc1ccc(-n2[nH]nc(C(N)=O)c2=O)cc1 is > 100 µM

TGI for CC(C)CCC[C@@H](C)[C@H]1CC[C@H]2[C@@H]3CC[C@H]4C[C@@H](CCC=C(c5cc(Cl)c(O)c(C(=O)O)c5)c5cc(Cl)c(O)c(C(=O)O)c5)CC[C@]4(C)[C@H]3CC[C@]12C is > 100 µM

TGI for Cc1c2ccncc2cc2c1[nH]c1ccccc12 is 10.5 µM

TGI for c1cc2c(cc1NC1=NCCO1)OCO2 is > 100 µM

TGI for c1ccc2c(c1)c1c(n2CCOCCN2CCCC2)CCCC1 is 96.9 µM

TGI for CO/N=C(/C)c1cccc(Nc2nc3ccccc3c3[nH]c4ccccc4c23)c1 is 24.2 µM

TGI for FC(F)(c1ccc2ncccc2c1)c1nnc2ccc(-c3ccncc3)nn12 is > 100 µM

TGI for COc1cc(OC)c(C(=O)/C=C/c2cc3c(cc2OCc2ccccc2)OC(C)(C)CC3)cc1CC=C(C)C is 16.9 µM

TGI for CN1CN(c2ccccc2)C2(CCN(CC(C)(c3ccc(F)cc3)C3OCCCO3)CC2)C1=O (stereo not drawn) is 65.3 µM

TGI for CN(C)CCNC(=O)c1ccc(NCCCN(C)CCCNc2ccc(C(=O)NCCN(C)C)c3[nH]c4ccccc4c(=O)c23)c2c(=O)c3ccccc3[nH]c12 is 2.59 µM

TGI for Cc1ccccc1NC(=O)c1cc(-c2ccc([N+](=O)[O-])cc2)nc(=S)[nH]1 is > 100 µM

TGI for O=C(/C=C/c1cccc(Oc2ccccc2)c1)NCc1ccc(C(=O)NCc2ccccc2)cc1 is > 100 µM

TGI for Cc1cc2/c(=C\c3ccc(N(C)C)cc3)c3ccccc3n2[n+]1C is 22.3 µM

TGI for CCCCCCCCCCCCCCCCNC(=O)C(=O)/C=C(\O)c1ccc(C)cc1 is > 10 µM

TGI for CCOC(=O)Nc1nc2ccc(OC)cc2s1 is > 100 µM
